TGT: T1, FGF7 (UniProt P21781 32-194)
T1 construct: fibroblast growth factor 7 (FGF7)
T1 sequence (looked up): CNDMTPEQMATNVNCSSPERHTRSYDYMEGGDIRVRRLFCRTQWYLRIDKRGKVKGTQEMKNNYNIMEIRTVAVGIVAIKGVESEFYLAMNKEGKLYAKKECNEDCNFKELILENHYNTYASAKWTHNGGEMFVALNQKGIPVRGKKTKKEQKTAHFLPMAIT
ASSAY_PROTOCOL: SPR; BIAcore X-100; FGF8b (20 μg/ml in 10 mM sodium acetate, pH 6.0) or other FGFs (10 mM sodium acetate at optimal pH) immobilised on a CM5 sensor chip by EDC/NHS; peptide injected (ARPCA 8 μM to 2000 μM), 4 min at 30 μl/min, 10 min dissociation, in HBS; equilibrium values fitted with the Langmuir equation for monovalent binding
SETUP_CONDITIONS: both partners purified
OBSERVED_PROPERTY: Kd (µM)
Kindly answer with a numeric value in µM, unit omitted.

Asked: Quick check: Kd of Ac-ARPCA-NH2 (long pentraxin-3 (PTX3), residues 100-104 of the N-terminal extension; source: synthetic peptide, provided by R. Longhi and A. Gori (CNR, Milano, Italy)) [Ac-ARPCA-NH2, acetylated pentapeptide corresponding to PTX3(100-104)] ?
Given back: 885
